- method-summary: NCI Yeast Anticancer Drug Screen. Data for the cln2 rad14 strain (AID 165);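 also: 0% = growth equal to vehicle treated cultures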
- test-parameters: S. cerevisiae cln2 rad14 strain, at 50.0 µM, active compounds read high
This is part of a sample that, as a whole, favours compounds with a hit. Of some 79,000 tested, about 15% had one in any assay. Calls of active or inactive are those of the source. Rule as the data show it: active = growth inhibition above about 70%; inactive = the rest. *1 amine or outer side, *2 acyl side, *3 side chain or, on linkers, in order; H or OH if unused. Where a SMILES comes first, the peptide text is derived from it. Bridges are numbered along the chain shown (N, C = ends). [ ]: non-standard residue; d: D form. The star is where a group is joined. X16 = CC(C)C(C)C(C(=O)[*:2])N(C)[*:1]; Picolinoyl(3-OH) = O=C(c1ncccc1O)*; NMePhg = CN[CH](C(=O)O)c1ccccc1; Hyp = O=C(O)[CH]1C[CH](O)CN1; Sar = CNCC(=O)O
Catalogue of growth inhibition values
readout: growth inhibition

# compound, readout, reported-result
data = [
    ("CCCC(C)C(C)O (stereo not given)", "growth inhibition", "-11.1% (inactive)"),
    ("CC(C)(C)CC(C)(C)NCc1ccccc1", "growth inhibition", "0.2% (inactive)"),
    ("CC(=O)c1cccc2ccccc12", "growth inhibition", "-9.1% (inactive)"),
    ("Clc1ccccc1C1Nc2ccccc2S1 (stereo not given)", "growth inhibition", "-7.75% (inactive)"),
    ("COc1cc2c(cc1OC)[C@H]1C(COC(=O)c3ccccc3)CSC(=Nc3ccccc3)N1CC2 (stereo not given in full)", "growth inhibition", "49.8% (inactive)"),
    ("O=c1[nH]nc(Cc2ccc(Cl)cc2)n1CCO", "growth inhibition", "3.75% (inactive)"),
    ("O=C1c2c(-c3ccccc3)ccc(-c3ccccc3)c2C(=O)c2c(-c3ccccc3)ccc(-c3ccccc3)c21", "growth inhibition", "-6.8% (inactive)"),
    ("O=C(O)[Si](c1ccccc1)(c1ccccc1)c1ccccc1", "growth inhibition", "4.8% (inactive)"),
    ("CC(c1ccccc1)C(C)(C#N)c1ccccc1 (stereo not given)", "growth inhibition", "33.5% (inactive)"),
    ("CC(C)CC1NC(=O)C(NC(=O)c2ncccc2O)C(C)OC(=O)C(c2ccccc2)N(C)C(=O)C(C)NC(=O)C(C(C)C(C)C)N(C)C(=O)CN(C)C(=O)C2CC(O)CN2C1=O (stereo not given) ({Picolinoyl(3-OH)}-TL[Hyp][Sar][X16]A[NMePhg]; ester 1-C; configuration not given here)", "growth inhibition", "3% (inactive)"),
    ("OCC1(c2ccccc2)CCNCC1", "growth inhibition", "-0.7% (inactive)"),
    ("N#Cc1cn(C2OC(CO)C3OC32)c2ncnc(NC(=O)c3ccccc3)c12 (stereo not given)", "growth inhibition", "10.3% (inactive)"),
    ("COc1ccc(NC(=O)N2CC3CCN2CC3)cc1", "growth inhibition", "-21.9% (inactive)"),
    ("COc1cc(C)c2c([N+](=O)[O-])cc([N+](=O)[O-])c(OC)c2n1", "growth inhibition", "3.85% (inactive)"),
    ("Cc1ccnc2c1NC(=O)c1cccnc1N2C1CC1", "growth inhibition", "-9.35% (inactive)"),
]

====

- method-summary: NCI Yeast Anticancer Drug Screen. Data for the sgs1 mgt1 strain (AID 161);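 also: 0% = growth of cultures given vehicle only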
- test-parameters: S. cerevisiae sgs1 mgt1 strain, at 50.0 µM, active compounds read high
The panel holds about 79,000 compounds, 15% with a hit somewhere; the sample as a whole holds those more often.
readout: growth inhibition (%)

# compound, result-units, reported-result
data = [
    ("CCc1n[nH]c(=S)n1/N=C/c1ccc(-c2ccc([N+](=O)[O-])cc2)o1", "%", -14),
    ("CCCC(C)(CC)C(=O)O (configuration not stated)", "%", 14.4),
    ("C/C(=C/c1c(C)[nH]c(=O)[nH]c1=O)C(=O)O", "%", -3.75),
    ("Cc1ccccc1N1CCN(CC(O)Cc2ccccc2)CC1 (configuration not stated)", "%", 12.1),
    ("CCCCC(=O)NCCNC(=O)CCCC", "%", -1.8),
    ("N#CC1C(=O)NC(=O)C(C#N)C12CCCC2 (configuration not stated)", "%", 5.25),
    ("[Cl][Pt+2][Cl].[NH-]C(CO)C([NH-])CO (configuration not stated)", "%", -10.3),
    ("O=c1[nH]c(=O)n(C2CC3OCC3O2)cc1F (configuration not stated)", "%", -9.05),
    ("CC(=O)OCC(=O)[C@H]1CC[C@@H]2[C@]1(C)CC=C1[C@]23C=C[C@]2(C[C@@H](OC(C)=O)CC[C@]12C)C1C(=O)OC(=O)C13 (some centres not stated)", "%", -0.6),
    ("CCOC(=O)C1=CN(Cc2ccccc2)C2ON=C(c3ccc(Cl)cc3)C2C1 (configuration not stated)", "%", -11.8),
    ("Cc1cc(CC(N)C(=O)O)ccc1O (configuration not stated)", "%", -6),
    ("CC(=O)Nc1ccccc1OC(=O)c1ccccc1", "%", 2.6),
]
